# Test system: HL-60(TB) leukemia
# EXPERIMENT NOTES: NCI-60 one-dose screen, 48 h (100 = growth as untreated, 0 = no growth, -100 = all killed)
# PROTOCOL CONDITIONS: 10 µM unless noted
About 83,000 compounds went through this panel and 20% of them were active in at least one assay; those are over-represented in the sample as a whole.
This section presents compounds with their documented growth values.
RECORDED METRIC: growth (%)

Cc1nccc2c3ccc(OCc4cn(-c5ccc(Br)cc5)nn4)cc3n(CCCc3ccccc3)c12 :: 46.1
COc1ccc(-n2c(SCc3cc(OC)c(OC)c(OC)c3)nc3ccc(C)cc3c2=O)cc1 :: 31.1
C=CC(=O)N[C@@H](/C=C/C(=O)OCC)Cc1ccc(-c2cc(Cl)cc(Cl)c2)cc1 :: -27.4
Nc1nn(C(=O)Nc2ccc(Cc3ccccc3)cc2)c2ccc(Cl)cc12 :: 24.9
CC(C)(C)CC(C)(C)Nc1c(-c2ccc(C(F)(F)F)cc2)nc2cnccn12 :: 79.4

###

# Test system: HL-60(TB) leukemia
# EXPERIMENT NOTES: NCI-60 one-dose screen, 48 h
# PROTOCOL CONDITIONS: 10 µM unless noted
Compounds without any hit were thinned out: in the full panel of roughly 83,000, 20% have a hit. Calls of active or inactive are those of the source. How the source made its calls: active means growth percent below 10; inactive means the rest.
Labels: active, inactive

CC(C)(C)[C@H](OCc1cn([C@H]2C[C@@H](O)[C@@H](CO)O2)c(=O)[nH]c1=O)c1ccc(C#Cc2ccccc2)cc1[N+](=O)[O-] :: inactive
CC(C)c1ccc2c(c1)CC[C@H]1[C@](C)(C(=O)OCC#CCN3CCCC3)CCC[C@]21C :: inactive
CCOC(=O)c1c(C)c(C(=O)OCC)n(C)c1C :: inactive
N#Cc1cnc2cc(OC[C@H](O)CO)c(NC(=O)CC3CSSC3)cc2c1Nc1ccc(OCc2cccc(F)c2)c(Cl)c1 :: active
O=Cc1ccc(O)c(O)c1 :: inactive
COc1cc(-c2nn(-c3cccc(NC(=O)Nc4cc(C(F)(F)F)cc(C(F)(F)F)c4)c3)cc2-c2ccncc2)ccc1Cl :: active
O=C(O)CCCN1C(=O)/C(=C/c2cn(-c3ccccc3)nc2-c2ccc([N+](=O)[O-])cc2)SC1=S :: inactive
CC(C)=CCC[C@H](C)c1ccc(C)c2c1OCN(CCO)C2 :: inactive
N#Cc1c(NC(=O)c2ccco2)[n+]([O-])c2cc(Cl)c(Cl)cc2[n+]1[O-] :: inactive
C#CCOc1ccc2ncnc(Nc3ccc(NC(=O)C=C)cc3)c2c1 :: active
O=C(Oc1ccc[nH]c1=O)c1cc([N+](=O)[O-])cc([N+](=O)[O-])c1 :: inactive
Cc1cn(-c2nc3c(c(NCc4ccccc4)n2)COCC3)c2cccc(C(N)=O)c12 :: inactive
O=C(CCN1CCCC1)Nc1ccc2c(NCCCCc3ccccc3)c3ccccc3nc2c1 :: active

###

# System: KM12 colon
# EXPERIMENT NOTES: NCI-60 one-dose screen, 48 h
# PROTOCOL CONDITIONS: 10 µM unless noted
This is part of a sample that, as a whole, favours compounds with a hit. Of some 83,000 tested, about 20% had one in any assay. Activity calls are given as the source filed them. The calls were made as follows: active = growth percent below 10; inactive = the rest.
Labels: active, inactive

CC(=O)N(C)C1=Nc2ccc(Cl)cc2C(c2ccccc2)=[N+]([O-])C1 :: inactive
O=[N+]([O-])c1ccc(/C=C/C=C/c2ccc(S(=O)(=O)F)cc2)c(Cl)c1 :: inactive
CCCCCCCCCCOc1ccc(C(=O)Oc2ccc(CSP3(=O)OCC4OC(n5ccc(=O)[nH]c5=O)C(F)C4OP(=O)(O)OCC4OC(n5cnc6c(N)ncnc65)C(F)C4O3)cc2)cc1 (stereo not drawn) :: inactive
Oc1ccc(Br)cc1CN1CCN(Cc2ccc(Cl)cc2)CC1 :: inactive
Oc1ccc2c3c1O[C@H]1c4[nH]c5ccccc5c4C[C@@]4(O)C(C2)N(CC2CC2)CC[C@]314 :: inactive
Cc1ccc(C(=O)C2CN(C)CCC2(O)c2ccc(C)cc2)cc1 (stereo not drawn) :: inactive
Cc1cccc(N=C2c3cc([N+](=O)[O-])ccc3-c3c2cc([N+](=O)[O-])cc3[N+](=O)[O-])c1 :: inactive
Cc1cc([N+](=O)[O-])c(Cl)cc1NS(=O)(=O)c1ccccc1 :: inactive
C[As](=O)(O)c1ccc(C(=O)O)cc1 :: inactive
COC(=O)C(=[N+]=[N-])C(=O)OC :: inactive
COP(=S)(OC)Oc1ccc(SC)c(C)c1 :: inactive
CC12CCC(=O)C=C1C(O)CC1C2CCC2(C)C(O)CCC12 (stereo not drawn) :: inactive
Cn1cnnc1[S-].[Au+].c1ccc([PH+](c2ccccc2)c2ccccc2)cc1 :: inactive
Cc1ccc(C[As+](c2ccccc2)(c2ccccc2)c2ccccc2)cc1 :: active
Cc1ccc(N)cc1[As]=[As]c1cc(N)ccc1C (stereo not drawn) :: inactive
CC(=O)O[C@H]1CCC2(C)C(=CCC3C2CCC2(C)/C(=N/OC(=O)c4ccc(N(CCCl)CCCl)cc4)CCC32)C1 (stereo partly drawn) :: inactive
O=S(=O)(F)c1ncnc2nc[nH]c12 :: inactive
Oc1c(Br)cc(Br)cc1Br.[Cu+2] :: inactive
CCC(CO)NC1CCCCC1 (stereo not drawn) :: inactive
O=C(CF)N(O)c1ccc(/C=C/c2ccccc2)cc1 :: inactive
CC(=O)OC1CCC2(C)C(=CCC3C4CC(CN5CC5)C(=O)C4(C)CCC32)C1 (stereo not drawn) :: active
COc1ccc2c(c1)NC1=C(C(=O)OC1)C2c1cc(OC)c(OC)c(OC)c1 (stereo not drawn) :: active
C=CC(=O)NC(O)C(Cl)(Cl)Cl (stereo not drawn) :: inactive
CC(C)(NC(=O)c1nn(CCCCCF)c2ccccc12)c1ccccc1 :: inactive
CCOc1c(Cl)cc(CNC(C)C(O)c2ccccc2)cc1OC (stereo not drawn) :: inactive
OB([O][Hg][c]1ccccc1)[O][Hg][c]1ccccc1 :: inactive
CC(/C=N/N=C(N)N)=N/N=C(N)N :: inactive
CCOP(=O)(OCC)Oc1ccc(Sc2ccc(OP(=O)(OCC)OCC)cc2)cc1 :: inactive
CC[CH2][Pb]([CH2]CC)([CH2]CC)[O]C(=O)C(F)(F)F :: active
O=[N+]([O-])c1ccc(F)c([N+](=O)[O-])c1F :: inactive
COc1cc(NCCCCCN=C(N)N)c2ncccc2c1 :: inactive
COc1ccc(-c2ccc(OC)c(OC)c2OC)cc1 :: inactive
O=C(CCc1ccco1)NC1CCN(CC2(c3ccc(Cl)cc3)CCC2)CC1 :: active
C1CNC2CCCC2C1 (stereo not drawn) :: inactive
CC1(C)N=C(N)N=C(N)N1c1ccc(OCCCCNC(=O)c2ccc(S(=O)(=O)F)cc2)c(Cl)c1 :: inactive
CC[C@H](C)[C@H](NC(=O)Nc1ccccc1)C(=O)N(C)[C@H](C[C@@H](OC(C)=O)c1nc(C(=O)N[C@@H](Cc2ccccc2)C[C@H](C)C(=O)OC)cs1)C(C)C :: active
N#Cc1ncc(/N=C/c2ccc(N(CCCl)CCCl)cc2)s1 :: inactive
CC(C)CCC[C@@H](C)[C@H]1CC[C@H]2[C@@H]3CC=C4C[C@@H](OC(=O)Cc5ccc(N(CCCl)CCCl)cc5)CC[C@]4(C)[C@H]3CC[C@]12C :: inactive
